Every entry's value here was drawn from patent US11040981B2.

Quick record of IC50 values for FLT3 (Homo sapiens, UniProt P36888).

Illustrative cases are given below, each with its answer.
COC[C@H](C)Nc1ncc2c(-c3cnn(Cc4cnccn4)c3)cc([C@H]3CC[C@H](O)CC3)n2n1 [Compound 305] = 100 to 1000 nM
COC[C@H](C)Nc1ncc2c(-c3cnn(CC4(C#N)CC4)c3)cc([C@H]3CC[C@H](O)CC3)n2n1 [Compound 266] = 100 to 1000 nM

Here is the next item to consider.
Let me check: COC[C@H](C)Nc1ncc2c(-c3cnn(C(C)(C)c4nnc(N5CCOCC5)o4)c3)cc(C3CCC(O)CC3)n2n1 (stereo partly drawn) [Compound 631] , system FLT3 (Homo sapiens, UniProt P36888), measured IC50 is 1000 to 10000 nM

---

subject of test: FLT3 (Homo sapiens)
Sequence (P36888 27-993): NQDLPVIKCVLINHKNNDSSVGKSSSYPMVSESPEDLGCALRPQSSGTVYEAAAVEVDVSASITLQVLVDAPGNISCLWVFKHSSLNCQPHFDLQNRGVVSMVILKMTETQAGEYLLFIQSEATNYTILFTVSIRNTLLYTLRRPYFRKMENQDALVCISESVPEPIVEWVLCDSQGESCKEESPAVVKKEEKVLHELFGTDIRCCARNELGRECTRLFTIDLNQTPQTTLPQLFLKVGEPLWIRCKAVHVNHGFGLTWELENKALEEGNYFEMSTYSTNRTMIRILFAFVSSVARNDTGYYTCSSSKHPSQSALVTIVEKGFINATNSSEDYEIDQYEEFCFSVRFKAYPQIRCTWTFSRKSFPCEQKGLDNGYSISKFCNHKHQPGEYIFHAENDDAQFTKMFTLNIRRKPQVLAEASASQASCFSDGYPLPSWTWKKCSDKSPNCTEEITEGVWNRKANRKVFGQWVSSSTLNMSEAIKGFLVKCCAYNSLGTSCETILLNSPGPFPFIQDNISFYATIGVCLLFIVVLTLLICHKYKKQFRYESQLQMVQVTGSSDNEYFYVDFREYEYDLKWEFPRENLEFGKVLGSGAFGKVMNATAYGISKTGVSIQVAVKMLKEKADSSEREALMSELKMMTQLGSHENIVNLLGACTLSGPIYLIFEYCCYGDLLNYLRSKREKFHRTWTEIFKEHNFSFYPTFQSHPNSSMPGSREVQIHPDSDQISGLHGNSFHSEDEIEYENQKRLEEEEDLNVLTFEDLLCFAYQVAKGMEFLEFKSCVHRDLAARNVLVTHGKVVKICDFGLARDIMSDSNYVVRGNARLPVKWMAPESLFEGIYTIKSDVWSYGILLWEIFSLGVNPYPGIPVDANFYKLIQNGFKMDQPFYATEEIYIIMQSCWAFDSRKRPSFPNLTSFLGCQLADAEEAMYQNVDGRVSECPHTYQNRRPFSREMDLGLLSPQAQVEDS
pIC50: −log10 of the molar value.
endpoint label: pIC50

COC[C@H](C)Nc1ncc2c(-c3cccc(CN4CC[C@@H](F)C4)c3)cc([C@H]3CC[C@H](O)CC3)n2n1 [Compound 224] = 6.00 to 7.00

pIC50 recorded for this molecule, COC[C@H](C)Nc1ncc2c(-c3ccnc(N4CCc5cnn(C)c5C4)c3)cc([C@H]3CC[C@H](O)CC3)n2n1 [Compound 518] , is 5.00 to 6.00

The molecule identified as CNC(=O)c1ccc(-c2cc([C@H]3CC[C@H](O)CC3)n3nc(N[C@@H](C)COC)ncc23)cn1 [Compound 147] registered its pIC50 at 5.00 to 6.00

COC[C@H](C)Nc1ncc2c(C3=C[C@H]4CC[C@@H](C3)N4CC(F)(F)F)cc([C@H]3CC[C@H](O)CC3)n2n1 [Compound 492] yielded pIC50 of 5.00 to 6.00
